Entry source: a melting point compilation (Tetko et al.)

The entries below come with measured melting point values attached.

Compound: NS(=O)(=O)c1cccc2cccnc12
melting point: 183 to 185 °C

Compound: Cc1cc(=O)[nH][nH]1
melting point: 223 to 225 °C

Briefly, melting point measured for CCCCCNCC(N)=O : 64 to 66 °C

Briefly, melting point measured for Cc1nc(CO)c(C)s1 : 44 to 46 °C

Briefly, melting point measured for NS(=O)(=O)c1cccc(F)c1 : 129 to 131 °C

Briefly, melting point measured for COc1ccc(-c2csc3ncnc(Cl)c23)cc1 : 163 to 167 °C

Briefly, melting point measured for O=C(O)c1ccccc1NS(=O)(=O)c1ccc2[nH]c(=O)[nH]c2c1 : 225 to 227 °C

Briefly, melting point measured for Cc1nnc(S)n1C1CCCCC1 : 164 to 166 °C

Briefly, melting point measured for Cc1ccc(N)cc1N1CCOC1=O : 130 to 132 °C

Briefly, melting point measured for COC(=O)C=CN(C)C : 43 to 45 °C

Briefly, melting point measured for O=CNc1ccc(C(=O)O)cc1 : 264 to 266 °C

Briefly, melting point measured for Clc1noc(-c2ccccc2)n1 : 31 to 33 °C

Briefly, melting point measured for Cc1cc(S(=O)(=O)Cl)ccc1[N+](=O)[O-] : 48 to 50 °C

Briefly, melting point measured for Cc1cc(=O)oc2cc(OCC(=O)NN)ccc12 : 179 to 181 °C

====

Property measured: melting point

Examples with their reported melting point follow.
Molecule: CC(C)(Nc1ccc([N+](=O)[O-])cc1)C(=O)O
melting point: 167 to 169 °C
--
Molecule: COc1ccc(C=NO)cc1OC
melting point: 91 to 93 °C
--
Molecule: COc1ncccc1O
melting point: 64 to 66 °C
--
Molecule: O=C1c2ccccc2C(=O)N1CC1(CBr)CCCC1
melting point: 68 to 70 °C
--
Molecule: Nc1ccn(Cc2ccsc2)n1
melting point: 43 to 45 °C

Briefly, melting point measured for COC(=O)c1cccc(C)c1C#N : 69 to 71 °C

====

The entries below come with measured melting point values attached.

Examples with their reported melting point follow.
Compound: CCC1=C(C(=O)O)Cc2ccccc2O1
Endpoint result: 223 to 225 °C
--
Compound: CC(C)NS(=O)(=O)c1ccc(F)c(C(=O)O)c1
Endpoint result: 167 to 169 °C
--
Compound: COc1cc(C(C)=O)ccc1S(=O)(=O)C(F)F
Endpoint result: 134 to 136 °C

Briefly, melting point measured for CC(C)=CCOc1cccc(C(=O)O)c1 : 86 to 88 °C

Briefly, melting point measured for O=C(c1cc(Cl)c[nH]1)C(Cl)(Cl)Cl : 128 to 130 °C

Briefly, melting point measured for CC(C)(C)c1ncc(N)cn1 : 119 to 121 °C

Briefly, melting point measured for Nc1cccc(NC(=O)CO)c1 : 150 to 152 °C

Briefly, melting point measured for Cc1cc(C=O)ccc1-n1cncn1 : 104 to 106 °C

====

The entries below come with measured melting point values attached.

Examples with their reported melting point follow.
Compound: Cc1ccc(-c2cc(C(=O)O)c3c(C)noc3n2)c(C)c1
Property measured: melting point
Endpoint result: 222 to 224 °C
//
Compound: O=CCCc1nc2ccccc2o1
Property measured: melting point
Endpoint result: 62 to 64 °C
//
Compound: CS(=O)(=O)CCc1ccc(N)cc1
Property measured: melting point
Endpoint result: 93 to 95 °C
//
Compound: NS(=O)(=O)c1cc([N+](=O)[O-])ccc1Br
Property measured: melting point
Endpoint result: 204 to 206 °C
//
Compound: CC(C)n1nnnc1-c1ccc(N)cc1F
Property measured: melting point
Endpoint result: 118 to 120 °C
//
Compound: Cc1cc(N)ccc1S(N)(=O)=O
Property measured: melting point
Endpoint result: 169 to 171 °C

Briefly, melting point measured for Fc1cccc(-c2nc(CCl)co2)c1 : 55 to 57 °C

Briefly, melting point measured for Nc1cc(S(=O)(=O)N2CCOCC2)ccc1N1CCCC1 : 179 to 181 °C

Briefly, melting point measured for Cc1ccc(-c2nnn(CC(=O)O)n2)cc1 : 188 to 190 °C

====

Property measured: melting point

Examples with their reported melting point follow.
Molecule: O=C(O)c1cnc(OCC(F)(F)F)c(Cl)c1
melting point: 162 to 164 °C
//
Molecule: Fc1ccccc1CCNC1=NCCS1
melting point: 95 to 97 °C
//
Molecule: CC1(c2ccc(S(C)(=O)=O)cc2)NC(=O)NC1=O (stereo not drawn)
melting point: 228 to 230 °C
//
Molecule: NC(Cc1c[nH]c2cc(F)ccc12)C(=O)O (stereo not drawn)
melting point: 283 to 285 °C
//
Molecule: O=C(O)COc1ccc2ccc(=O)oc2c1
melting point: 213 to 215 °C
//
Molecule: CC1Oc2ccccc2N(CC(=O)O)C1=O (stereo not drawn)
melting point: 146 to 148 °C
//
Molecule: O=C(O)c1cnc2sc(Cc3ccccc3)cn2c1=O
melting point: 197 to 199 °C
//
Molecule: N#CCC(=O)Nc1ccccc1Br
melting point: 136 to 138 °C

Briefly, melting point measured for COC(=O)c1cc(S(=O)(=O)N2CCCC2)ccc1O : 160 to 162 °C

Briefly, melting point measured for O=C(O)c1cccn1Cc1ccccn1 : 172 to 174 °C

Briefly, melting point measured for O=C(NCCc1ccccn1)OCC(F)(F)F : 59 to 61 °C

Briefly, melting point measured for CNc1ncnc2nc[nH]c12 : 316 to 318 °C

Briefly, melting point measured for NNC(=O)c1sc2cc(F)ccc2c1Cl : 239 to 241 °C

====

Property measured: melting point

Molecule: COc1ccc(C(=O)O)cc1-c1ccnn1C
melting point: 225 to 227 °C
--
Molecule: O=C(O)C1(S(=O)(=O)c2ccc(Cl)cc2)CC1
melting point: 185 to 187 °C
--
Molecule: CCc1oc2ccccc2c1C(=O)O
melting point: 89 to 91 °C
--
Molecule: COCC(=O)Nc1cccc(N)c1
melting point: 82 to 84 °C
--
Molecule: NC(C(=O)O)c1cccc(F)c1 (stereo not drawn)
melting point: 273 to 275 °C

Briefly, melting point measured for CC(C)CC(Cc1cccc(Br)c1)C(=O)O (stereo not drawn) : 66 to 68 °C

Briefly, melting point measured for O=C(O)CCCOc1cccc2ccccc12 : 116 to 118 °C

Briefly, melting point measured for Cc1ccc(CC(=O)Nc2cccc(C(C)O)c2)cc1 (stereo not drawn) : 121 to 123 °C

Briefly, melting point measured for CC(C#N)NC(=O)OC(C)(C)C (stereo not drawn) : 94 to 96 °C

Briefly, melting point measured for Fc1cc(Br)cc2c(Cl)cc(C(F)(F)F)nc12 : 91 to 93 °C

Briefly, melting point measured for O=C(O)c1ccc(CN2CCc3ccccc32)cc1 : 182 to 184 °C

Briefly, melting point measured for CCOC(=O)CNC(=O)NCC(=O)OCC : 146 to 148 °C

Briefly, melting point measured for CS(=O)(=O)CCC(NC(=O)c1ccc(Cl)cc1)C(=O)O (stereo not drawn) : 184 to 186 °C

====

The entries below come with measured melting point values attached.

Briefly, melting point measured for O=C(O)Cc1cn(-c2ccccc2)nc1-c1ccc(Br)cc1 : 135 to 137 °C

====

The entries below come with measured melting point values attached.

Briefly, melting point measured for Cc1ccc(N)c(-c2nc(C3CC3)no2)c1 : 87 to 89 °C

Briefly, melting point measured for Cc1cc(N)c2cc(N)ccc2n1 : 212 to 214 °C

Briefly, melting point measured for COc1cc([N+](=O)[O-])cc2sc(N)nc12 : 279 to 281 °C

Briefly, melting point measured for Cn1c(=O)n(C)c2cc(S(N)(=O)=O)c(Br)cc21 : 314 to 316 °C

Briefly, melting point measured for CC(=O)CC(=O)Nc1ccc(C)c(Cl)c1 : 108 to 110 °C

Briefly, melting point measured for CCCCCCCCCC(=O)N[C@@H](CCC(N)=O)C(=O)O : 129 to 131 °C

====

Property measured: melting point

Compound: Nc1ccccc1Oc1ncc(Cl)cc1Cl
melting point: 104 to 106 °C

Compound: Cc1ccc(N)cc1S(=O)(=O)NC1CC1
melting point: 131 to 133 °C

Compound: O=C(O)c1ccc(F)c(COc2ccc(F)cc2)c1
melting point: 149 to 151 °C

Compound: OC(c1ccccc1)c1nc(-c2ccccc2)no1 (stereo unspecified)
melting point: 97 to 99 °C

Compound: Cc1nn(CC(F)(F)F)c(C)c1CC(=O)O
melting point: 157 to 159 °C

Compound: NC(=S)NCc1ccc(F)cc1
melting point: 119 to 121 °C

Compound: O=C(O)c1cc(N=Nc2ccc(S(=O)(=O)Nc3ccccn3)cc2)ccc1O
melting point: 260 to 265 °C

Compound: O=c1[nH]c(CO)nc2ccccc12
melting point: 221 to 223 °C

Compound: Cc1ccc2oc(-c3nnc(S)n3N)cc2c1
melting point: 228 to 230 °C

Compound: COc1ccc(Br)c(-c2nnc(CCC(=O)O)o2)c1
melting point: 116 to 118 °C

Briefly, melting point measured for CNCCCc1cc(-c2ccc(F)cc2)n[nH]1 : 104 to 106 °C

Briefly, melting point measured for O=C(Cc1ccccc1Cl)c1ccccc1 : 68 to 70 °C

Briefly, melting point measured for COc1ccc(CC(=O)NCc2ccc(C(=O)O)cc2)cc1 : 229 to 231 °C

Briefly, melting point measured for Cc1oc(C)c(C(=O)O)c1C : 131 to 133 °C

Briefly, melting point measured for CC(=O)N(c1ccc(Cl)cc1)c1nc(C=O)cs1 : 210 to 212 °C
